target desc: MAGL (Mus musculus, UniProt O35678)
Construct: mouse brain membrane fraction or cell lysates for mouse assays
Sequence (O35678 whole entry): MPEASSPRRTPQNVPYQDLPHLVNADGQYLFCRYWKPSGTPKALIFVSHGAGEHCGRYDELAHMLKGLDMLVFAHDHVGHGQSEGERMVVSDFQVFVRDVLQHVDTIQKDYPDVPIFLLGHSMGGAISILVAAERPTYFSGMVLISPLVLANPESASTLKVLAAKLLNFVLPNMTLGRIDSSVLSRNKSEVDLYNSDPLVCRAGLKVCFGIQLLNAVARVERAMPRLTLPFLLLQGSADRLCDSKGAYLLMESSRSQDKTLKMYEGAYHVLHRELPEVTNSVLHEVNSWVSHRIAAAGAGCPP
method notes: In vitro competitive activity-based protein profiling, mouse MAGL
property: IC50

Reported IC50 for `CN(Cc1cccc(C(F)(F)F)c1)[C@H]1C[C@@H]2CN(C(=O)n3cc(Cl)cn3)C[C@@H]2C1` was ≤ 100 nM

response.value for O=C(N1CC2CN(Cc3ccc(F)cc3)CC2C1)n1cc(C(F)(F)F)cn1 (stereo not drawn) (field: IC50) = ≤ 100 nM

Proceeding to the next compound to report its IC50.
IC50 for O=C(N1CCC2(CCN(Cc3cccc(Cl)c3)C2)C1)n1cc(Cl)cn1 (stereo not drawn) [Example 113] is 100 to 1000 nM

====

target desc: MAGL (Mus musculus, UniProt O35678)
Construct: mouse brain membrane fraction or cell lysates for mouse assays; from tissue
method notes: In vitro competitive activity-based protein profiling, mouse MAGL
Type: biochemical
experimental setup: 1 μM, read-out: MAGL % inh. 1 μM (mouse)
// reported inhibition at 1 µM per item

Entry O=C(N1CC2CN(Cc3ccc(F)cc3N3CCCC3)CC2C1)n1cc(Cl)cn1 (stereo not shown) — recorded inhibition at 1 µM = ≥ 75%

The compound `CN(Cc1ccccc1Cl)[C@H]1C[C@@H]2CN(C(=O)n3cc(C(=O)O)cn3)C[C@@H]2C1` showed inhibition at 1 µM equal to 0 to 25%

inhibition at 1 µM in this record for `O=C(N1C[C@H]2C[C@@H](NCc3ccccc3Cl)C[C@H]2C1)n1cc(Cl)cn1` : ≥ 75%

Next:
For O=C(O)c1cnn(C(=O)N2CC3CN(Cc4ccc(C(F)(F)F)cc4)CC3C2)c1 (stereo not shown) the compound record lists inhibition at 1 µM as 0 to 25%

inhibition at 1 µM for `CC(=O)N(Cc1ccccc1Cl)[C@@H]1C[C@@H]2CN(C(=O)n3cc(Cl)cn3)C[C@@H]2C1` is ≥ 75%

What the record says about O=C(c1cnn(C(=O)N2CCC3(CCN(Cc4cc(Cl)ccc4Cl)C3)C2)c1)N1CCOCC1 (stereo not shown) : inhibition at 1 µM is 0 to 25%

Note to self: inhibition at 1 µM recorded for `O=C(N1C[C@H]2C[C@H](NCc3ccc(Cl)cc3)C[C@H]2C1)n1cc(Cl)cn1` was ≥ 75%

====

target desc: FAAH (Mus musculus)
Construct: mouse brain membrane fraction or cell lysates for mouse assays; from tissue
Sequence (O08914 whole entry): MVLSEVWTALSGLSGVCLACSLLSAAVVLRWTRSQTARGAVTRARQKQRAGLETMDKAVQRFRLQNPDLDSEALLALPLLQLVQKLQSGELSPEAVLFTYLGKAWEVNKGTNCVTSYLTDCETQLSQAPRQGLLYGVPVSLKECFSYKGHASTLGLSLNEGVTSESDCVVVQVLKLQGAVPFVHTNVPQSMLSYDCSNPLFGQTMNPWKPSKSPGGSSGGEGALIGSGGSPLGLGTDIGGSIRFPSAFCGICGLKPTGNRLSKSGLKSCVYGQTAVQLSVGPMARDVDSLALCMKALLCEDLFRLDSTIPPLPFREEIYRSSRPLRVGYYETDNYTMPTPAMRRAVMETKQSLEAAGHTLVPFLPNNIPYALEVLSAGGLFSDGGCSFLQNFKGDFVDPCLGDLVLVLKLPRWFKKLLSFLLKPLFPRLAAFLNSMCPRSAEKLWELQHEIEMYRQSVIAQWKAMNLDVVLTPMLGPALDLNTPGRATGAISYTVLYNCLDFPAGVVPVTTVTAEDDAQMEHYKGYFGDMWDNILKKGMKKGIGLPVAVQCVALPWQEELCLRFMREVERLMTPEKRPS
method notes: In vitro competitive activity-based protein profiling, mouse FAAH
Type: biochemical
experimental setup: 1 μM, read-out: FAAH % inh. 1 μM (mouse)
property: inhibition at 1 µM

Solved cases (2 shown):
So for `CN(Cc1ccc(Oc2ccccc2)cc1)[C@H]1C[C@@H]2CN(C(=O)n3cc(Cl)cn3)C[C@@H]2C1` , the logged inhibition at 1 µM turned out to be ≥ 75%

Per the record, `CN(Cc1ccccc1C(F)(F)F)[C@@H]1C[C@@H]2CN(C(=O)n3cc(C(=O)N4CCCC4)cn3)C[C@@H]2C1` has inhibition at 1 µM of ≥ 75%

Others:
# inhibition at 1 µM (molecule: `CN(Cc1ccccc1Cl)[C@@H]1C[C@@H]2CN(C(=O)n3cc(C(=O)N4CCOCC4)cn3)C[C@@H]2C1` ) is ≥ 75%

Please fill in: inhibition at 1 µM reported for `CN(Cc1cc(Cl)ccc1C(F)(F)F)[C@H]1C[C@@H]2CN(C(=O)n3cc(C(N)=O)cn3)C[C@@H]2C1` = ≥ 75%

The molecule identified as CC(=O)N1CCN(c2cc(Cl)ccc2CN2CC3CN(C(=O)n4cc(Cl)cn4)CC3C2)CC1 (stereo not shown) registered its inhibition at 1 µM at ≥ 75%

Measured inhibition at 1 µM of CNC(=O)c1cnn(C(=O)N2CCC3(CCN(Cc4cc(Cl)cc(C(F)(F)F)c4)C3)C2)c1 (stereo not shown) : ≥ 75%

Lab note: measured inhibition at 1 µM of O=C(O)c1cnn(C(=O)N2CC3CN(Cc4cc(Cl)ccc4C(F)(F)F)CC3C2)c1 (stereo not shown) was ≥ 75%

The molecule listed as `CN(Cc1ccc(C(F)(F)F)cc1)[C@@H]1C[C@@H]2CN(C(=O)n3cc(Cl)cn3)C[C@@H]2C1` has a reported inhibition at 1 µM of ≥ 75%

So for Cc1ccccc1CN1CC2CN(C(=O)n3cc(C(F)(F)F)cn3)CC2C1 (stereo not shown) , the logged inhibition at 1 µM turned out to be ≥ 75%

Please fill in: inhibition at 1 µM reported for `CN(Cc1ccc(Cl)cc1)[C@@H]1C[C@@H]2CN(C(=O)n3cc(Cl)cn3)C[C@@H]2C1` = ≥ 75%

inhibition at 1 µM in this record for NC(=O)c1cnn(C(=O)N2CC3CN(Cc4cccc(C(F)(F)F)c4)CC3C2)c1 (stereo not shown) : ≥ 75%

# inhibition at 1 µM (molecule: Cc1cc(-c2ccccc2)ccc1CN1CCC2(CCN(C(=O)n3cc(Cl)cn3)C2)C1 (stereo not shown) ) is ≥ 75%

Per the records, this molecule ( NC(=O)c1cnn(C(=O)N2CCC3(CCN(Cc4cccc(C(F)(F)F)c4)C3)C2)c1 (stereo not shown) ) has inhibition at 1 µM equal to ≥ 75%

Memo: NC(=O)c1cnn(C(=O)N2CC3CN(Cc4cc(Cl)cc(C(F)(F)F)c4)CC3C2)c1 (stereo not shown) , reported inhibition at 1 µM: ≥ 75%

Noted for NC(=O)c1cnn(C(=O)N2CCC3(CCN(Cc4ccc(N5CCOCC5)c(C(F)(F)F)c4)C3)C2)c1 (stereo not shown) : its inhibition at 1 µM reads ≥ 75%

The molecule listed as O=C(N1CC2CN(Cc3cccc(Cl)c3)CC2C1)n1cc(C(F)(F)F)cn1 (stereo not shown) has a reported inhibition at 1 µM of ≥ 75%

GET /value?item= CNC(=O)c1cnn(C(=O)N2CCC3(CCN(Cc4cccc(C(F)(F)F)c4)C3)C2)c1 (stereo not shown) &field=inhibition at 1 µM returns ≥ 75%

inhibition at 1 µM in this record for O=C(N1CCC2(CCN(Cc3ccccc3)C2)C1)n1cc(Cl)cn1 (stereo not shown) : ≥ 75%

====

target desc: MAGL (Mus musculus, UniProt O35678)
Construct: mouse brain membrane fraction or cell lysates for mouse assays; from tissue
method notes: In vitro competitive activity-based protein profiling, mouse MAGL
Type: biochemical
experimental setup: 10 μM, read-out: MAGL % inh. at 10 μM (mouse)
property: inhibition at 10 µM (%)

response.value for O=C(c1cnn(C(=O)N2CC3CN(Cc4ccc(Oc5ccc(Cl)cc5)cc4)CC3C2)c1)N1CCOCC1 (stereo not shown) [Example 200] (field: inhibition at 10 µM) = 50

Sample O=C(c1cnn(C(=O)N2CCC3(CCN(Cc4cc(Cl)ccc4Cl)C3)C2)c1)N1CCOCC1 (stereo not shown) [Example 29] ; inhibition at 10 µM observed: 100

a. O=C(c1cnn(C(=O)N2CCC3(CCN(Cc4cccc(C(F)(F)F)c4)C3)C2)c1)N1CCOCC1 (stereo not shown) [Example 32]
b. CNC(=O)c1cnn(C(=O)N2CCC3(CCN(Cc4cccc(C(F)(F)F)c4)C3)C2)c1 (stereo not shown) [Example 42]
Problem: Looking at a and b , which one comes out lower in inhibition at 10 µM terms? Refer to your chosen entry by its label in the reply.
Result: a

====

target desc: MAGL (Mus musculus)
Construct: mouse brain membrane fraction or cell lysates for mouse assays
method notes: In vitro competitive activity-based protein profiling, mouse MAGL
property: IC50

See these solved cases before continuing.
The recorded IC50 for entry CN(Cc1ccccc1Cl)[C@@H]1C[C@@H]2CN(C(=O)n3cc(Cl)cn3)C[C@@H]2C1 [Example 59] equals ≤ 0.1 µM

molecule O=C(N1CC2CN(Cc3ccc(N4CCOCC4)cc3)CC2C1)n1cc(Cl)cn1 (stereo not shown) , IC50 observed: 0.1 to 1 µM

The molecule `CN(Cc1cccc(Cl)c1)[C@H]1C[C@@H]2CN(C(=O)n3cc(Cl)cn3)C[C@@H]2C1` showed IC50 equal to ≤ 0.1 µM

Continuing:
So, O=C(N1CCC2(CCN(Cc3cccc(Oc4ccccc4)c3)C2)C1)n1cc(Cl)cn1 (stereo not shown) ? Its IC50 was 0.1 to 1 µM

====

target desc: MAGL (Mus musculus)
Construct: mouse brain membrane fraction or cell lysates for mouse assays
method notes: In vitro competitive activity-based protein profiling, mouse MAGL
# key: entry, value: IC50

The compound listed as CC(=O)N(Cc1ccccc1Cl)[C@@H]1C[C@@H]2CN(C(=O)n3cc(Cl)cn3)C[C@@H]2C1 [Example 62] has a reported IC50 of 100 to 1000 nM

Others:
compound O=C(N1CC2CN(Cc3ccc(Cl)cc3N3CCC4(CCOCC4)C3)CC2C1)n1cc(Cl)cn1 (centres unmarked) [Example 111] , IC50 observed: ≤ 100 nM

Record O=C(N1CC2CN(Cc3ccc(C(F)(F)F)cc3)CC2C1)n1cc(Cl)cn1 (centres unmarked) [Example 120] . Reported IC50: ≤ 100 nM

// O=C(c1cnn(C(=O)N2CC3CN(Cc4cccc(Cl)c4)CC3C2)c1)N1CCCCC1 (centres unmarked) [Example 3] : IC50 value = 1000 to 10000 nM

So, NC(=O)c1cnn(C(=O)N2CC3CN(Cc4ccc(N5CCOCC5)cc4C(F)(F)F)CC3C2)c1 (centres unmarked) [Example 2] ? Its IC50 was ≤ 100 nM

Entry Cc1cc(N2CCOCC2)ccc1CN1CC2CN(C(=O)n3cc(Cl)cn3)CC2C1 (centres unmarked) [Example 131] ; IC50 = ≤ 100 nM

IC50 reported for this compound O=C(N1CC2CN(Cc3ccc(Cl)c(Cl)c3)CC2C1)n1cc(Cl)cn1 (centres unmarked) [Example 119] : ≤ 100 nM

Lookup result for O=C(N1CC2CN(Cc3cccc(Cl)c3)CC2C1)n1cc(Cl)cn1 (centres unmarked) [Example 117] ; measured IC50: ≤ 100 nM
